system: MS2 coat protein; test: apparent Kd, MS2 coat protein; higher = weaker binding; RNA-MaP array; settings: designed as: ON switch for flavin mononucleotide; no ligand
Consider the following sequences; for each one, report its apparent Kd.
Write the value in nM as a bare number.

Please state recorded apparent Kd (tested on MS2 coat protein) of AAUUUUUACUCAGGAUAUUGGGAGAGCACGGGUUGUUCUCCCCACAUGAGGAUCACCCAUGUGAUCAAGAAGGGAGACGCAAAG
25.9

Same question for CACGGCAUUGAGAAGGGAGUGACAUGGAACUGCUCAGGAUAUCAACACACAUUGUUAAAGAAAACAUGAGGAUCACCCAUGUUC please.
11.2

Same question for CAUCAAAAGCUAGGAUAUACCUAGAGUACCGGAACAUGAGGAUCACCCAUGUUAGAGUGAUGCUGGUAGAAGGAGCUGGUAAAG please.
31.9

Same question for CAUUCACUAACUCCACAUGAGGAUCACCCAUGUUGAGGUCCGAGAAGGUGCACUACGUGGGAGCGCAAGGAUAUCGCCUAGUAA please.
9.84

Same question for GUCUGAUGACAUGAGGAUCACCCAUGUUGUAGGGUUACCUUCAGAAGGGCGAACUCGUAUAGAGCGCAGGAUAUGAAUCAAAGA please.
29.5

Same question for CUUUUACAUGAGGAUCACCCAUGUUGUACAGGGUUAGGAUAUCUUAAUGUUAAGUUAAUGAGAGAAGGAACAGUCA please.
149

Same question for UUUUUCCUGUAUAUCGGUACAUGAGGAUCACCCAUGUUCCCAGAGGAUAUUUGAUGGUGGGUAACAAAGAAGGCUGGCUACAGG please.
20.6

----------
Consider the following sequences; for each one, report its apparent Kd.
test system: MS2 coat protein; experiment: apparent Kd, MS2 coat protein; higher = weaker binding; RNA-MaP array; tryptophan 2.4 mM where present; settings: ligand present: tryptophan; designed as: OFF switch for tryptophan
Write the value in nM as a bare number.

Would you kindly share the measured apparent Kd for UGGGUACCGACGGCCGCCACUGACUAUAGACAUGAGGAUCACCCAUGUAGAGAUCCUAGACUACCCAGGACCGGGUCUGGUGCUA ?
220

Same question for CCAUUGAUGACGGCCGCCACUGUCUACAUGAGGAUCACCCAUGUAUAGCAGGGUGGACCUAUGGACAGGACCGGGUCACUUGUCC please.
12.3

Same question for GCGACCCUGAGAUCCUGCGUAACGUGAACACGAGGACCGGUACGGCCGCCACUCGAGAGAACAUGAGGAUCACCCAUGUCUGAGC please.
22.2

Same question for UAAUAAGUACCGGUUCUCAGAUCCUCAUGUCGAGGACCGGUACGGCCGCCACUCGAAACAUGAGGAUCACCCAUGUAAUAAUAAU please.
31.7

Same question for AUGACUCACAAAGAAGAUAAAAUGGGUGAACGAGGACCGGUACGGCCGCCACUCGGACAUGAGGAUCACCCAUGUCCAUGUGCAA please.
28.8

Same question for GUCUUGGGAUCGGCCGCCACUACAUGAGGAUCACCCAUGUGGACAAAUAGGGUUUUUAAGCUCGGUAGGACCGGGAUUCGGACAU please.
56.9

Same question for CCUAUGCAGUCGGCCGCCACUGAUAAAGUUAUCUUUACCUCAGAAACAUGAGGAUCACCCAUGUACAGGACCGGGACUGUAUAGG please.
19.8

Same question for GGUAUGUAUUCGGAAACGAAUGCAUACCAACGAGGACCGGUACGGCCGCCACUCGGCCGUGAUCAACAUGAGGAUCACCCAUGUA please.
26.8

Same question for CGCGGUUGAGAUGGGCCUUUGAUAAGUCUGCGAGGACCGGUACGGCCGCCACUCGAGGACAUGAGGAUCACCCAUGUACUUCGCG please.
17.8

Same question for CAAUAAGUACCGGUCCUCAGAUCCUCAUGACGAGGACCGGUACGGCCGCCACUCGAAACAUGAGGAUCACCCAUGUAAUAAUAAC please.
30.5

Same question for UAACAUGAGGAUCACCCAUGUAUACUAAGUCGAGGACCGGUACGGCCGCCACUCGAACUUCAAGAAUAGGCGGUAAAUGUAAGUA please.
13.3

Same question for AAUGUAUGCCACAUGAGGAUCACCCAUGUGCGAGGACCGGUACGGCCGCCACUCGGUCGGUGGUUAAUGAAGAUAUACAAUAAUG please.
15.5

Same question for AUGCAUAGCACGGCCGCCACUCCAUGUAAACAUGAGGAUCACCCAUGUAAUUUGGAUGUUUUAUAGAGGACCGGGUGAAAUGCAA please.
15.1

Same question for UUACAUGAGGAUCACCCAUGUUUACUAUGUCGAGGACCGGUACGGCCGCCACUCGUAUUUGAUGAUUUAGGUGCCACAAGUUAUU please.
20.5

----------
system: MS2 coat protein; assay: apparent Kd, MS2 coat protein; higher = weaker binding; RNA-MaP array; conditions: ligand present: flavin mononucleotide; designed as: ON switch for flavin mononucleotide
metric_name: apparent Kd (nM)
Write the value in nM as a bare number.

Please state recorded apparent Kd (tested on MS2 coat protein) of CAAAACAUGAGGAUCACCCAUGUAGAUACGUGAAAAUUAUGGGAGGAUAUACAAUAGGACUGUAUGAAGAAGGCCCGAAAGCCA
18.5

Same question for UUUUUCCUGUAUAUCGGUACAUGAGGAUCACCCAUGUUCCCAGAGGAUAUUUGAUGGUGGGUAACAAAGAAGGCUGGCUACAGG please.
9.31

Same question for CACUUCAUAAUAGGAUAUCAUGGAUGACAUGAGGAUCACCCAUGUCCGCACUCUUCAACUACACGUGAGAAGGAUUCGCGGGUC please.
130

Same question for AAAGCCUUUCUAGGAUAUCAAUACAGUCGUGGUUGAGAAGGAGAAACUGCGUUCUAGACAUGAGGAUCACCCAUGUCCUCAAUG please.
71.9

Same question for UGACUGUGUGAGAAGGUGUUCCGCGCCCGGCCACAAGGAUAUCACAACGCUGCCCUACAUGAGGAUCACCCAUGUGAUUGCUAC please.
25.8

Same question for GACGCGAGCGCACUUACAUGAGGAUCACCCAUGUGUUCCGAAAGAAGGGCUAGUGUACCCGCAGAGCAGGAUAUUUCGAUUUGC please.
121

Same question for AAUUUUUACUCAGGAUAUUGGGAGAGCACGGGUUGUUCUCCCCACAUGAGGAUCACCCAUGUGAUCAAGAAGGGAGACGCAAAG please.
16.8

----------
Consider the following sequences; for each one, report its apparent Kd.
system: MS2 coat protein; assay: apparent Kd, MS2 coat protein; higher = weaker binding; RNA-MaP array; settings: designed as: OFF switch for flavin mononucleotide; no ligand
Write the value in nM as a bare number.

Would you kindly share the measured apparent Kd for GACGUGGAGUCAGGAUAUCGACGACAUUCUUAGCGAGAAGGGACCUAGCUUAGAUCAACAUGAGGAUCACCCAUGUCGAGUUUC ?
21.7

Same question for CCUUAUUCAUAGAAGGAGUUCAUCCUACGUGGACUAGGAUAUAUAUUCGACAUGAGGAUCACCCAUGUAUCUGAGAUCGUGGUA please.
29.3

Same question for ACUCUAAGAUGAGGAUAUCACAUCUUAUCGCCACGGUGGCUUCACAUGAGGAUCACCCAUGUAUGUGAGAAGGCAUUUCCGGAC please.
24.1

Same question for UUGGCGUCAGGAUAUACCGGUCGAUUCACAAUGAACUCCGUACAUGAGGAUCACCCAUGUAGAAGGGACAGUGG please.
6.22

Same question for ACAAUGUGAGGAUAUCGUAAGCAUGACUAUGGCGCUAACACCGAGAAGGCACAUGAGGAUCACCCAUGUCCUGA please.
6.84

Same question for CUCCUGGCAGGAUAUACAUGAGGAUCACCCAUGUUCCGAGCGUCCCAAACGACACGGUGUAGAAGGGCCAAGAU please.
12.8

Same question for GACAUGAGGAUCACCCAUGUGAAAUUCAUGGCGAUAACAUCUGAGGAUAUGUGCAGCCGAGGAAGACAGAAGGCAGAAACACAA please.
117

Same question for UUCGCCACGCAAGGAUAUGAUACUUAUUGCUGUUCAGAAGGUGCGACAUGAGGAUCACCCAUGUGGUGUGUCCAGGGAGGCUAG please.
333

Same question for CGGCAACUGUAGAAGGAGCAUCCCACAUCUAAGCUAGGAUAUACGUAAUGUAUGUACAUGAGGAUCACCCAUGUGUGCACCAGG please.
26.4

Same question for UUAAUACAUGAGGAUCACCCAUGUUAGGAUAUAGAAAUCGCUGGUGCGAGAAGACAGGCUAGAAGGAACACGGA please.
10.2

Same question for GUCCUCGAAGGAUAUAUUGGAAAUUACAUGAGGAUCACCCAUGUCUCGUAGUAUAGCACGAUAGAAGGUCGGAAGA please.
36.1

Same question for AACAUGAGGAUCACCCAUGUUUCAGAUCCUCUCUGGUUCAAGUAGGAUAUGUGUGAUACGGAAGUACAGAAGGACUCCGGAGCA please.
38.4

Same question for GGGUACAUCUAGAAGGAGAAUCCUCUUGACAUGAGGAUCACCCAUGUCGUAGUCAAGACUAAAAUCUAGGAUAUAGCUGUGCGU please.
233

Same question for AUACUAAACAUGAGGAUCACCCAUGUGACGUCAGGUCAGUUGAGAAGGCUAGGGAUGCUAGAUGUAGAGGAUAUCAGCGACGGA please.
15.4

Same question for GAAUCAUGACAGAAGGCACGGAAUACCCGGCUGUGAGGAUAUGUUUGAAAACAGACAUGAGGAUCACCCAUGUCCGAAGUGUCU please.
301

Same question for CGCUGCCGAAGAGGAUAUCCCACGACCCAAACUGGAGAAGGCUUUAGGUUUUGCCGACAUGAGGAUCACCCAUGUGUCAGUGCA please.
13.1

Same question for UUCCCUGCUUAGGAUAUCUAGACAAGACGGUCAAGAGAAGGAAGUACAUGAGGAUCACCCAUGUUUAGCAUGAA please.
10.5

Same question for UAUCACUGGCAGAAGGUUCUCGGAAGCGAUGGUACUCUAUACAUGAGGAUCACCCAUGUCUACGGAAAGGAUAUGCCAUUGCGA please.
70

Same question for CUAAUUAUCGAGAAGGAACGACGCAUCACCGAUCUAGCACACAUGAGGAUCACCCAUGUACACCGUUAGGAUAUCGCAAACCAG please.
8.46

Same question for CAGAACAACGAAGGAUAUGCGAAACAUGAGGAUCACCCAUGUGUGGUUUUACUCAAACACCUGUCGCAGAAGGUCGCGUAACGA please.
37.9

Same question for CUCUUGCGGUUAGGAUAUUCCCUUGAAAACAAUGAAGAAGGAACCAGAUGAUCACAUGUCCUACAUGAGGAUCACCCAUGUUAA please.
353

Same question for AUAGAAAAUGUAAGGAUAUAUCGAAACAAUAAACGAAAGAAGGAACAUGAGGAUCACCCAUGUAAAGUAAUAAA please.
10.3

Same question for AGAUCCUUGGUCAGGAUAUCCAAUAAAGCCGUUUGGGAGAAGGGACAUGAGGAUCACCCAUGUAAAUUGACCAC please.
12.2

Same question for AUUUAAAAGUUAGGAUAUCUCAUCAGCUCAAUAGAUGACAUGAGGAUCACCCAUGUGACCAAAGGAGAGAAGGAACUCAUAAUG please.
65.1

Same question for GUCGAGAUUCAAGGAUAUCCGAUCUUACGCAUAGUAGAAUGACAUGAGGAUCACCCAUGUGUCCAGGAGAAGGUGAAUGGAUUU please.
33.3

Same question for UGGUCACAUGAGGAUCACCCAUGUAAGGAUAUCCGCGCCAUAGAGGAAAAGACGGUAUGGAGAAGGUACAGCUU please.
29.9

Same question for UCAUGGUCAGGAUAUACGAUUAGACAUGGCUUCGAUAAGUCGUAGAAGGGACAUGAGGAUCACCCAUGUAGCAA please.
109

Same question for GUCUCCUGAGAGAAGGCUCGCUCCGAGGAAUAGAGAGGAUAUCUACAUGAGGAUCACCCAUGUUGCCGAGGGAAAUGCACGGGU please.
68.9

Same question for UACAUGAACGUCAGGAUAUUGGUAUAUUACCUAGCCAAGAAGGGACAUGAGGAUCACCCAUGUAUUCGGUCCAA please.
25.2
